For each of the molecules below, state its half-life at 1 μM.
assayInfo: Stability assay in rabbit aqueous humor
Assay type: in vitro ADME
conditionContext: 1 μM in rabbit aqueous humor, LC-MS/MS; read-out: t½ Rabbit AH

(Q) Bench note: what half-life at 1 μM did `COC(=O)c1cccc(NC(=O)c2cccc(-c3cc(C(=O)Nc4ccncc4F)ccc3CN)c2)c1` show?
(A) > 1 h

Shifting focus to the molecule that follows.
(Q) Item under review: `CCCOC(=O)c1cccc(NC(=O)c2cccc(-c3cc(C(=O)Nc4ccncc4F)ccc3CN)c2)c1` . Reported half-life at 1 μM?
(A) > 1 h

* * *

assayInfo: Stability towards drug metabolizing enzymes in lung S9
Type: in vitro ADME
conditionContext: human, lung S9 (from smokers) with NADPH, UDPGA, PAPS and GSH, read-out: t½ human lung S9
measurementLabel: half-life at 1 μM

(Q) What half-life at 1 μM value was documented for this compound, COC(=O)c1cccc(NC(=O)c2cccc(-c3cc(C(=O)Nc4ccncc4F)ccc3CN)c2)c1 [Compound 1] ?
(A) > 30 min
